- measurement-target: human mPGES-1 (Homo sapiens, UniProt O14684)
- Construct: made in house; host or cells: COS-1 cells (transient transfection; microsomal fraction used as enzyme)
- experiment-description: Test for mPGES-1 inhibitory activity (microsomal enzyme, PGE2 EIA)
- Type: biochemical
- condition-context: microsomes of COS-1 cells transfected with human mPGES-1 cDNA; PGH2 1 μM; 4° C., 4 minutes; PGE2 by EIA; read-out: h mPGES1 IC50
Exercise: state measured IC50 for each of the molecules provided.

Form field IC50, entry Cc1cc(=O)[nH]c(-c2c(C(F)(F)F)ccc(CNC(=O)[C@H]3C[C@H](OCc4ccc(Cl)cc4)C3)c2F)n1 : 1.7 nM

The molecule listed as CCc1cc(=O)[nH]c(-c2c(C(F)(F)F)ccc(CNC(=O)[C@H]3C[C@H](OCc4ccc(F)c(F)c4)C3)c2F)n1 shows IC50 equal to < 1 nM

Short answer for Cc1cc(=O)[nH]c(-c2c(C(F)(F)F)ccc(CNC(=O)[C@H]3C[C@H](OCc4cccc(C(F)(F)F)c4)C3)c2F)n1 : IC50 was 12 nM

// recorded IC50 for O=c1cc(C(F)F)nc(-c2c(C(F)(F)F)ccc(CNC(=O)[C@H]3C[C@H](OCc4cccc(C(F)(F)F)c4)C3)c2F)[nH]1 : < 1 nM

// IC50 lookup, molecule = CCc1nc(-c2c(C(F)(F)F)ccc(CNC(=O)[C@H]3C[C@H](OCc4ccc(F)c(Cl)c4)C3)c2F)[nH]c(=O)c1F , result: < 1 nM

So for O=c1cc(C(F)F)nc(-c2c(C(F)(F)F)ccc(CNC(=O)[C@H]3C[C@H](OCc4ccccc4C(F)(F)F)C3)c2F)[nH]1 , the logged IC50 turned out to be < 1 nM

Field IC50 (entry Cc1nc(-c2c(C(F)(F)F)ccc(CNC(=O)[C@H]3C[C@H](OCc4cc(F)cc(Cl)c4)C3)c2F)[nH]c(=O)c1F ) reads < 1 nM

Data point: O=c1cc(C(F)(F)F)nc(-c2c(C(F)(F)F)ccc(CNC(=O)[C@H]3C[C@H](OCc4cc(F)cc(Cl)c4)C3)c2F)[nH]1 ; IC50 = < 12 nM

For record Cc1cc(=O)[nH]c(-c2c(C(F)(F)F)ccc(CNC(=O)[C@H]3C[C@H](OCc4ccc(F)c(Cl)c4)C3)c2F)n1 the listed IC50 is < 1 nM

The value of IC50 measured for the molecule O=c1cc(C(F)F)nc(-c2c(C(F)(F)F)ccc(CNC(=O)[C@H]3C[C@H](OCc4ccc(Cl)cc4F)C3)c2F)[nH]1 turned out to be < 1 nM

Documented IC50 of CCc1nc(-c2c(C(F)(F)F)ccc(CNC(=O)[C@H]3C[C@H](OCc4cc(Cl)ccc4F)C3)c2F)[nH]c(=O)c1F : < 1 nM

====

- measurement-target: human mPGES-1 (Homo sapiens)
- Construct: made in house; host or cells: COS-1 cells (transient transfection; microsomal fraction used as enzyme)
- Sequence (O14684 1-152): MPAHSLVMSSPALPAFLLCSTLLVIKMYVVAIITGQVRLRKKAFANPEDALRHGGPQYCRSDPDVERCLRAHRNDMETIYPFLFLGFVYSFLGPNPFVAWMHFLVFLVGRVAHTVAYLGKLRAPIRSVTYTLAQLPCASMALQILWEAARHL
- experiment-description: Test for mPGES-1 inhibitory activity (microsomal enzyme, PGE2 EIA)
- Type: biochemical
- condition-context: microsomes from COS-1 cells transfected with human mPGES-1 cDNA; substrate PGH2 1 μM; 4° C., 4 minutes; PGE2 measured by EIA; read-out: h mPGES1 IC50
Consider the following compounds; for each one, report its IC50.

Entry O=c1cc(C(F)F)nc(-c2c(C(F)(F)F)ccc(CNC(=O)[C@H]3CC[C@H](OCc4ccccc4Cl)CC3)c2F)[nH]1 — recorded IC50 = < 1 nM

Looking up Cc1cccc(N2CCC(C(=O)NCc3ccc(C(F)(F)F)c(-c4nc(C(F)(F)F)cc(=O)[nH]4)c3F)CC2)n1 , I see its IC50 listed as < 10 nM

Reported IC50 for Cc1cc(=O)[nH]c(-c2c(C(F)(F)F)ccc(CNC(=O)C3CCN(c4ccc5cccc(C)c5n4)CC3)c2F)n1 was < 10 nM

compound Cc1cccc2ccc(N3CCC(F)(C(=O)NCc4ccc(C(F)(F)F)c(-c5nc(C(F)(F)F)cc(=O)[nH]5)c4F)CC3)nc12 , IC50 observed: < 1 nM

Lookup result for O=C(NCc1ccc(C(F)(F)F)c(-c2nc(C(F)(F)F)cc(=O)[nH]2)c1F)C1CCN(c2ccccn2)CC1 ; measured IC50: < 1 nM

So, Cc1cnc2ccc(N3CCC(C(=O)NCc4ccc(C(F)(F)F)c(-c5nc(C(F)(F)F)cc(=O)[nH]5)c4F)CC3)nn12 ? Its IC50 was < 1 nM

What the record says about O=c1cc(C(F)(F)F)nc(-c2c(C(F)(F)F)ccc(CNC(=O)[C@H]3CC[C@H](OCc4cc(F)cc(Cl)c4)CC3)c2F)[nH]1 : IC50 is < 1 nM
